Assay: Aqueous solubility of the compound at pH 7.4
Assay type: physicochemical
Conditions: aqueous medium
Result type: solubility

[[record]]
item_smiles = "Cc1ccc(O)c(C(=O)N[C@H]2CC[C@@H](NC(=O)c3cc(F)cnc3Oc3ccc(F)c(F)c3)CC2)c1"
result_type = "solubility"
test_result = "< 1 µM"

[[record]]
item_smiles = "Cc1cc(C(=O)N[C@H]2CC[C@@H](NC(=O)c3cc(F)cnc3Oc3cccc(-c4cc(O)cc(CN5C[C@@H](C)N[C@@H](C)C5)c4)c3)CC2)nn1C"
result_type = "solubility"
test_result = "> 1500 µM"


Let's switch to this molecule now.
Prompt: Supply solubility value. Item: Cc1csc(C(=O)N[C@H]2CC[C@@H](NC(=O)c3cc(F)cnc3Oc3cccc(-c4ccc(CN5C[C@@H](C)N[C@@H](C)C5)cc4CN4CCOCC4)c3)CC2)n1.O=C(O)C(F)(F)F
Completion: > 1400 µM
